Each recorded value in this set is attributed to ChEMBL document CHEMBL1154730.

test: Cytotoxicity against mouse EAC cells assessed as non-viable cells at 25 ug/ml after 2 hrs by trypan blue exclusion; format: functional, Ehrlich
Documented Activity across a set of compounds
metricName: Activity (%)

# compound, quantitativeReadout
measured = [
    ("N#CC1=C(N2C(=O)CCC2=O)N(c2ccc(S(N)(=O)=O)cc2)C2=C(C(=O)CCC2)C1c1ccc(Cl)cc1Cl (configuration not stated)", 50),
    ("N#CC1=C(N)N(c2ccc(S(N)(=O)=O)cc2)C2=C(C(=O)CCC2)C1c1ccc(Cl)cc1Cl (configuration not stated)", 50),
    ("N=c1c2c([nH]c(=S)n1-c1ccc(Br)cc1)N(c1ccc(S(N)(=O)=O)cc1)C1=C(C(=O)CCC1)C2c1ccc(Cl)cc1Cl (configuration not stated)", 30),
    ("C=CCn1c(=S)[nH]c2c(c1=N)C(c1ccc(Cl)cc1Cl)C1=C(CCCC1=O)N2c1ccc(S(N)(=O)=O)cc1 (configuration not stated)", 40),
    ("C=CCNC(=S)NC1=C(C#N)C(c2ccc(Cl)cc2Cl)C2=C(CCCC2=O)N1c1ccc(S(N)(=O)=O)cc1 (configuration not stated)", 30),
    ("Nc1nc(=O)[nH]c2c1C(c1ccc(Cl)cc1Cl)C1=C(CCCC1=O)N2c1ccc(S(N)(=O)=O)cc1 (configuration not stated)", 80),
    ("Nc1nc(=S)[nH]c2c1C(c1ccc(Cl)cc1Cl)C1=C(CCCC1=O)N2c1ccc(S(N)(=O)=O)cc1 (configuration not stated)", 50),
    ("N#CC1=C(NS(=O)(=O)c2ccc(Br)cc2)N(c2ccc(S(N)(=O)=O)cc2)C2=C(C(=O)CCC2)C1c1ccc(Cl)cc1Cl (configuration not stated)", 90),
    ("CCCCn1c(=S)[nH]c2c(c1=N)C(c1ccc(Cl)cc1Cl)C1=C(CCCC1=O)N2c1ccc(S(N)(=O)=O)cc1 (configuration not stated)", 70),
    ("CCCCNC(=S)NC1=C(C#N)C(c2ccc(Cl)cc2Cl)C2=C(CCCC2=O)N1c1ccc(S(N)(=O)=O)cc1 (configuration not stated)", 30),
    ("N=c1c2c([nH]c(=S)n1-c1ccc(Cl)cc1)N(c1ccc(S(N)(=O)=O)cc1)C1=C(C(=O)CCC1)C2c1ccc(Cl)cc1Cl (configuration not stated)", 60),
    ("N#CC1=C(NS(=O)(=O)c2ccc([N+](=O)[O-])cc2)N(c2ccc(S(N)(=O)=O)cc2)C2=C(C(=O)CCC2)C1c1ccc(Cl)cc1Cl (configuration not stated)", 85),
]

---

Measured Activity, listed per entry.
test: Cytotoxicity against mouse EAC cells assessed as non-viable cells at 10 ug/ml after 2 hrs by trypan blue exclusion; assay type: functional, Ehrlich

# compound, resultUnit, Activity
data = [
    ("COc1cccc2c1C(=O)c1c(O)c3c(c(O)c1C2=O)C[C@@](O)(C(=O)CO)C[C@@H]3O[C@H]1C[C@H](N)[C@H](O)[C@H](C)O1", "%", 19),
    ("C=CCn1c(=S)[nH]c2c(c1=N)C(c1ccc(Cl)cc1Cl)C1=C(CCCC1=O)N2c1ccc(S(N)(=O)=O)cc1 (stereo not given)", "%", 30),
    ("C=CCNC(=S)NC1=C(C#N)C(c2ccc(Cl)cc2Cl)C2=C(CCCC2=O)N1c1ccc(S(N)(=O)=O)cc1 (stereo not given)", "%", 10),
    ("N#CC1=C(N)N(c2ccc(S(N)(=O)=O)cc2)C2=C(C(=O)CCC2)C1c1ccc(Cl)cc1Cl (stereo not given)", "%", 40),
    ("N=c1c2c([nH]c(=S)n1-c1ccc(Br)cc1)N(c1ccc(S(N)(=O)=O)cc1)C1=C(C(=O)CCC1)C2c1ccc(Cl)cc1Cl (stereo not given)", "%", 30),
    ("N#CC1=C(NS(=O)(=O)c2ccc([N+](=O)[O-])cc2)N(c2ccc(S(N)(=O)=O)cc2)C2=C(C(=O)CCC2)C1c1ccc(Cl)cc1Cl (stereo not given)", "%", 50),
    ("N#CC1=C(N2C(=O)CCC2=O)N(c2ccc(S(N)(=O)=O)cc2)C2=C(C(=O)CCC2)C1c1ccc(Cl)cc1Cl (stereo not given)", "%", 20),
    ("N#CC1=C(NC(=S)Nc2ccc(Cl)cc2)N(c2ccc(S(N)(=O)=O)cc2)C2=C(C(=O)CCC2)C1c1ccc(Cl)cc1Cl (stereo not given)", "%", 30),
    ("N=c1c2c([nH]c(=S)n1-c1ccc(Cl)cc1)N(c1ccc(S(N)(=O)=O)cc1)C1=C(C(=O)CCC1)C2c1ccc(Cl)cc1Cl (stereo not given)", "%", 50),
    ("N#CC1=C(NC(N)=O)N(c2ccc(S(N)(=O)=O)cc2)C2=C(C(=O)CCC2)C1c1ccc(Cl)cc1Cl (stereo not given)", "%", 20),
    ("CCCCn1c(=S)[nH]c2c(c1=N)C(c1ccc(Cl)cc1Cl)C1=C(CCCC1=O)N2c1ccc(S(N)(=O)=O)cc1 (stereo not given)", "%", 70),
    ("N#CC1=C(NC(=S)Nc2ccccc2)N(c2ccc(S(N)(=O)=O)cc2)C2=C(C(=O)CCC2)C1c1ccc(Cl)cc1Cl (stereo not given)", "%", 40),
    ("CCCCNC(=S)NC1=C(C#N)C(c2ccc(Cl)cc2Cl)C2=C(CCCC2=O)N1c1ccc(S(N)(=O)=O)cc1 (stereo not given)", "%", 30),
    ("N#CC1=C(NC(=O)CCC(=O)O)N(c2ccc(S(N)(=O)=O)cc2)C2=C(C(=O)CCC2)C1c1ccc(Cl)cc1Cl (stereo not given)", "%", 20),
    ("N=c1c2c([nH]c(=S)n1-c1ccccc1)N(c1ccc(S(N)(=O)=O)cc1)C1=C(C(=O)CCC1)C2c1ccc(Cl)cc1Cl (stereo not given)", "%", 10),
]
